- Test system: OVCAR-8 ovarian
- protocol_details: NCI tumour cell line growth inhibition, 48 h
property: TGI

>>> print(df.to_string())
                                   compound    result
0      Oc1ccc(CN2CCC(N3CCCCC3)CC2)c2cccnc12  > 100 µM
1  FC(F)(F)c1ccc2nc3n(c2c1)C(c1c(Cl)cccc1Cl)SC3 (stereo not given)   46.8 µM
2  CCOC(=O)C(CC#Cc1ccc(C#CCC(NC(C)=O)C(=O)OCC)cc1)NC(C)=O (stereo not given)  > 100 µM
3  COc1cc(C2=NOC(c3cc(OC)c(OC)c(OC)c3)C2)ccc1OCCCCOc1cc2c(cc1OC)C(=O)N1CCC[C@H]1C=N2 (stereo not given in full)   10.9 µM
4  CCCCc1ccc(Nc2nc3c(ncn3COCCO)c(=O)[nH]2)cc1  > 100 µM

---

- System: SNB-75 CNS
- protocol_details: NCI tumour cell line growth inhibition, 48 h
property: TGI

compound	target_entity	property	result
Cn1c2ccccc2n2c(=O)c3cc([N+](=O)[O-])ccc3c(C#N)c12	SNB-75 CNS	TGI	> 100 µM
COc1cc(C2=C(c3ccccc3)COC2=O)cc(OC)c1OC	SNB-75 CNS	TGI	> 100 µM
COc1ccc(-c2c(C#N)c(N)nc3c2CCS(=O)(=O)c2ccccc2-3)cc1	SNB-75 CNS	TGI	> 100 µM
NC(=O)c1ccc(I)c(N)c1	SNB-75 CNS	TGI	> 100 µM
CCNC(=O)C1CCCN1C(=O)C(CCCN=C(N)N)NC(=O)C(CC(C)C)NC(=O)C(Cc1c[nH]c2ccccc12)NC(=O)C(Cc1ccc(O)cc1)NC(=O)C(CO)NC(=O)C(Cc1c[nH]c2ccccc12)NC(=O)C(Cc1cnc[nH]1)NC(=O)C1CCC(=O)N1 (stereo unspecified)	SNB-75 CNS	TGI	> 100 µM
Cc1nc(C)c(Cc2ccccc2)o1	SNB-75 CNS	TGI	> 100 µM
O=C(O)CNS(=O)(=O)c1ccc(NCc2ccccc2)cc1	SNB-75 CNS	TGI	> 100 µM
O=C(/C=C/c1c(O)ccc2ccccc12)c1cccc(O)c1	SNB-75 CNS	TGI	> 100 µM
COc1ccc(-c2cnnc3c(-c4cccc(C(F)(F)F)c4)cnn23)cc1	SNB-75 CNS	TGI	4.6 µM
COc1cc(I)c2c3c1OC1C34CCN(C)C(C2)C4=CC(I)C1(OC)OC (stereo unspecified)	SNB-75 CNS	TGI	31.2 µM
Cc1c2ncccc2cc2oc3ccccc3c(=O)c12	SNB-75 CNS	TGI	> 100 µM
Brc1cccc(C=NC23CC4CC(CC(C4)C2)C3)c1	SNB-75 CNS	TGI	> 100 µM
COC(=O)C1CC2(c3ccccc3)C(=O)c3ccccc3N2O1 (stereo unspecified)	SNB-75 CNS	TGI	> 100 µM
CCOC(=O)/C(C#N)=N\Nc1ccc(-n2c(C)nc3ccccc3c2=O)cc1	SNB-75 CNS	TGI	> 100 µM
CC(=O)CNC(=O)OC(C)(C)C	SNB-75 CNS	TGI	> 100 µM
CC1(C)OC2[C@@H](CNC(=O)NC(=O)NC(=O)CI)O[C@@H](n3cnc4c(NC(=O)Nc5ccccc5)ncnc43)[C@H]2O1 (stereo partly specified)	SNB-75 CNS	TGI	13.3 µM
COc1ccc(/C=C/CN(C)CCc2ccccc2)cc1OC	SNB-75 CNS	TGI	> 100 µM
Cc1cn(C(C)OCCN2C(=O)c3ccccc3C2=O)c(=O)[nH]c1=O (stereo unspecified)	SNB-75 CNS	TGI	> 100 µM
FC(F)(F)c1ccc2nc3n(c2c1)C(c1c(Cl)cccc1Cl)SC3 (stereo unspecified)	SNB-75 CNS	TGI	25.8 µM
CN1C(=O)C2(Cc3cn(C45CC67SSC(CO)(C(=O)N6C4Nc4ccccc45)N(C)C7=O)c4ccccc34)SSC1(CO)C(=O)N2C (stereo unspecified)	SNB-75 CNS	TGI	0.345 µM
CC(=S)N=Cc1c(O)cc(C)oc1=O	SNB-75 CNS	TGI	> 100 µM

---

- Tested on: SF-539 CNS
- protocol_details: NCI tumour cell line growth inhibition, 48 h
Collected TGI values appear next to each entry.
property: TGI

                                    molecule     result
 0  OCC(O)CC[CH2][Sn]([Br])([c]1ccccc1)[c]1ccccc1 (stereo unspecified)   > 100 µM
 1      CC(=O)OC/C=C(/C=C/CNC1CCCCC1)OC(C)=O    24.2 µM
 2      COc1ccc(NC2=CC(=O)C(=O)c3ccccc32)nn1     2.2 µM
 3  O=C1O[C@@H](c2ccc3c(c2)OCO3)C2C(=O)O[C@@H](c3ccc4c(c3)OCO4)C12 (stereo partly specified)   > 100 µM
 4  O=c1c2ccccc2nc(Nc2cccc(Cl)c2)n1/N=C/C=C/c1ccccc1   > 100 µM
 5           NC(=O)C(=CNC(=S)c1ccncc1)C(N)=O   > 100 µM
 6  Cc1nn(-c2cc(Cl)ccc2[N+](=O)[O-])c(C)c1Cl   > 100 µM
 7    COc1cc(C2=C(c3ccccc3)COC2=O)cc(OC)c1OC  > 51.4 µM
 8      O=C(c1ccccc1)c1nnc(C(=O)c2ccccc2)nn1   > 344 µM
 9  OC1(c2ccc(Cl)cc2)c2ccc3ccccc3c2C2=N[C@H]3CCCC[C@@H]3N21 (stereo partly specified)    43.7 µM
10             CC(=O)OCCN1c2ccccc2Sc2cnccc21    > 10 µM
11        C/C(CC(=O)Nc1ccc(C)cc1C)=N/N=C(N)N   > 100 µM
12  COc1cc(C2=NOC(c3cc(OC)c(OC)c(OC)c3)C2)ccc1OCCCCOc1cc2c(cc1OC)C(=O)N1CCC[C@H]1C=N2 (stereo partly specified)   0.894 µM
13  CCOC(=O)C(CC#Cc1ccc(C#CCC(NC(C)=O)C(=O)OCC)cc1)NC(C)=O (stereo unspecified)   > 100 µM
14  FC(F)(F)c1cccc(Nc2nccc(-c3cnn4nc(-c5ccccc5)ccc34)n2)c1  > 18.7 µM
15  NC(N)=NS(=O)(=O)c1ccc(NC(=O)c2ccc3nc4ccccc4c(Nc4ccc(S(=O)(=O)N=C(N)N)cc4)c3c2)cc1   > 100 µM
16  CC[CH2][Sn]([CH2]CC)([O]C(=O)c1cccnc1SC)[O][Sn]([CH2]CC)([CH2]CC)[O]C(=O)c1cccnc1SC    1.24 µM
17  NC(=O)C(=O)N/N=C(\CC1(O)C(=O)Nc2ccccc21)c1ccc2ccccc2c1 (stereo unspecified)   > 100 µM
18           Brc1cc2nn(-c3ccccc3)nc2c2nonc12   > 100 µM
19                       O=c1[nH]ncc(Br)c1Br    6.31 µM
20   COc1cc(CN2CCCCC2)cc2cc(C(=O)O)c(=O)oc12   > 100 µM

---

- Test system: SK-MEL-5 melanoma
- protocol_details: NCI tumour cell line growth inhibition, 48 h; in the data active means GI50 below about 0.43 µM; inactive means the rest
Classes used: active, inactive

In [3]: df
Out[3]:
                                   molecule  label_value
0  FC(F)(F)c1cccc(Nc2nccc(-c3cnn4nc(-c5ccccc5)ccc34)n2)c1     inactive
1  Cn1c2ccccc2c2c(-c3ccccc3)[n+]3ccncc3nc21     inactive
2  COc1cc(C2=NOC(c3cc(OC)c(OC)c(OC)c3)C2)ccc1OCCCCOc1cc2c(cc1OC)C(=O)N1CCC[C@H]1C=N2 (some centres not stated)       active
3  CC[C@@]1(O)C(=O)OCc2c1cc1n(c2=O)Cc2c-1nc1cc3c(cc1c2CCl)OCO3       active
4  CCN(CC)c1ccc(/C=C/c2ccc3cc(C)ccc3[n+]2CC)cc1       active
5  CC1=CC(=Nc2ccc(N(CCCl)CCCl)cc2)C=C(C)C1=O     inactive
6  C=C1C(=O)O[C@H]2[C@H]1CC/C(Cn1cc(-c3ccc(OC)cc3)nn1)=C\CC[C@@]1(C)O[C@@H]21     inactive

---

Listed compounds paired with reported TGI
- Tested on: NCI-H226 lung
- protocol_details: NCI tumour cell line growth inhibition, 48 h
property: TGI

>>> print(df.to_string())
                                    compound     result
 0    O=C(/C=C/c1c(O)ccc2ccccc12)c1cccc(O)c1   > 100 µM
 1  O=C1C=CC(=O)c2c(O)c(NCCc3ccc(O)cc3)c(Cl)c(O)c21    > 10 µM
 2            O=C(/C(Br)=C/c1ccccc1)c1ccccc1    14.1 µM
 3  CSC(C1c2ccccc2N(c2ccc(C)cc2)C2=NC(=O)N(C)C(=O)C21Cl)S(=O)(=O)c1ccc(C)cc1 (stereo unspecified)    48.7 µM
 4  CNC(=O)N(CCC#N)[C@H]1CCCC[C@@H]1N(C(=O)NC)c1ccccc1   > 100 µM
 5  COC(=O)C1CC2(c3ccccc3)C(=O)c3ccccc3N2O1 (stereo unspecified)   > 100 µM
 6  CCCCc1ccc(Nc2nc3c(ncn3COCCO)c(=O)[nH]2)cc1   > 100 µM
 7                 CC(=S)N=Cc1c(O)cc(C)oc1=O   > 100 µM
 8  O=c1oc2cc(O)ccc2c(O)c1C(c1ccc(C(c2c(O)c3ccc(O)cc3oc2=O)c2c(O)c3ccc(O)cc3oc2=O)cc1)c1c(O)c2ccc(O)cc2oc1=O   > 100 µM
 9            CN1CCN(C)C12C=c1ccccc1=CC21CC1   > 100 µM
10  CCOC(=O)/C(C#N)=N\Nc1ccc(-n2c(C)nc3ccccc3c2=O)cc1   > 100 µM
11  Nc1ccc(S(=O)(=O)Nc2nc3ccccc3nc2N2CCCCC2)cc1   > 100 µM
12  O=C1c2cc(Cl)ccc2S(=O)(=O)c2c(NCCCNCCO)nc3ccccc3c21    22.7 µM
13    COc1cc(C2=C(c3ccccc3)COC2=O)cc(OC)c1OC   > 100 µM
14                 Oc1ccc2ccccc2c1N=Nc1nccs1  > 52.9 µM
15  CCC[CH2][Sn]1([CH2]CCC)[O]Cc2nc(C)ccc2[O]1    27.1 µM
16                 NC(=O)c1cc2ccccc2o/c1=N/O   > 100 µM
17  CCOC(=O)C(NC(=O)CC(C)C)(N1CCN(c2cc3c(cc2F)c(=O)c(C(=O)O)cn3C2CC2)CC1)C(F)(F)F (stereo unspecified)    46.3 µM
18             CC(=O)OCCN1c2ccccc2Sc2cnccc21    > 10 µM
19  FC(F)(F)c1ccc2nc3n(c2c1)C(c1c(Cl)cccc1Cl)SC3 (stereo unspecified)    35.4 µM
20    COc1c(C)c2nc3ccccc3[nH]c2c2c(=O)ccnc12   > 100 µM
